# IC50 measurements, system: ALK kinase (Homo sapiens)

Example entries and their recorded answers appear below.
molecule: Cc1n[nH]c2nc(-c3ccc(O)cc3F)c(C#N)c(C3C[C@@H]3C(=O)NCC3CCNCC3)c12 (stereo partly shown)
target.or.test.system: ALK kinase (Homo sapiens)
measurement: 100 to 1000 nM

molecule: N#Cc1c(-c2cscn2)nc2[nH]nc(-c3cccs3)c2c1-c1ccc(N2CCNCC2)cc1
target.or.test.system: ALK kinase (Homo sapiens)
measurement: > 10000 nM

molecule: N#Cc1c(-c2c(F)ccc(F)c2F)nc2[nH]nc(-c3cccs3)c2c1-c1ccc(N2CCNCC2)cc1
target.or.test.system: ALK kinase (Homo sapiens)
measurement: 100 to 1000 nM

# ---- query molecule ----
[Q] Query for ALK kinase (Homo sapiens): what IC50 does the record show for `Cc1n[nH]c2nc(-c3ccc(O)cc3Cl)c(C#N)c(-c3ccc(N4CCNCC4)cc3)c12` ?
[A] 100 to 1000 nM

----------
# pIC50 measurements, system: ALK kinase (Homo sapiens, UniProt Q9UM73)
# Sequence (Q9UM73 19-1620): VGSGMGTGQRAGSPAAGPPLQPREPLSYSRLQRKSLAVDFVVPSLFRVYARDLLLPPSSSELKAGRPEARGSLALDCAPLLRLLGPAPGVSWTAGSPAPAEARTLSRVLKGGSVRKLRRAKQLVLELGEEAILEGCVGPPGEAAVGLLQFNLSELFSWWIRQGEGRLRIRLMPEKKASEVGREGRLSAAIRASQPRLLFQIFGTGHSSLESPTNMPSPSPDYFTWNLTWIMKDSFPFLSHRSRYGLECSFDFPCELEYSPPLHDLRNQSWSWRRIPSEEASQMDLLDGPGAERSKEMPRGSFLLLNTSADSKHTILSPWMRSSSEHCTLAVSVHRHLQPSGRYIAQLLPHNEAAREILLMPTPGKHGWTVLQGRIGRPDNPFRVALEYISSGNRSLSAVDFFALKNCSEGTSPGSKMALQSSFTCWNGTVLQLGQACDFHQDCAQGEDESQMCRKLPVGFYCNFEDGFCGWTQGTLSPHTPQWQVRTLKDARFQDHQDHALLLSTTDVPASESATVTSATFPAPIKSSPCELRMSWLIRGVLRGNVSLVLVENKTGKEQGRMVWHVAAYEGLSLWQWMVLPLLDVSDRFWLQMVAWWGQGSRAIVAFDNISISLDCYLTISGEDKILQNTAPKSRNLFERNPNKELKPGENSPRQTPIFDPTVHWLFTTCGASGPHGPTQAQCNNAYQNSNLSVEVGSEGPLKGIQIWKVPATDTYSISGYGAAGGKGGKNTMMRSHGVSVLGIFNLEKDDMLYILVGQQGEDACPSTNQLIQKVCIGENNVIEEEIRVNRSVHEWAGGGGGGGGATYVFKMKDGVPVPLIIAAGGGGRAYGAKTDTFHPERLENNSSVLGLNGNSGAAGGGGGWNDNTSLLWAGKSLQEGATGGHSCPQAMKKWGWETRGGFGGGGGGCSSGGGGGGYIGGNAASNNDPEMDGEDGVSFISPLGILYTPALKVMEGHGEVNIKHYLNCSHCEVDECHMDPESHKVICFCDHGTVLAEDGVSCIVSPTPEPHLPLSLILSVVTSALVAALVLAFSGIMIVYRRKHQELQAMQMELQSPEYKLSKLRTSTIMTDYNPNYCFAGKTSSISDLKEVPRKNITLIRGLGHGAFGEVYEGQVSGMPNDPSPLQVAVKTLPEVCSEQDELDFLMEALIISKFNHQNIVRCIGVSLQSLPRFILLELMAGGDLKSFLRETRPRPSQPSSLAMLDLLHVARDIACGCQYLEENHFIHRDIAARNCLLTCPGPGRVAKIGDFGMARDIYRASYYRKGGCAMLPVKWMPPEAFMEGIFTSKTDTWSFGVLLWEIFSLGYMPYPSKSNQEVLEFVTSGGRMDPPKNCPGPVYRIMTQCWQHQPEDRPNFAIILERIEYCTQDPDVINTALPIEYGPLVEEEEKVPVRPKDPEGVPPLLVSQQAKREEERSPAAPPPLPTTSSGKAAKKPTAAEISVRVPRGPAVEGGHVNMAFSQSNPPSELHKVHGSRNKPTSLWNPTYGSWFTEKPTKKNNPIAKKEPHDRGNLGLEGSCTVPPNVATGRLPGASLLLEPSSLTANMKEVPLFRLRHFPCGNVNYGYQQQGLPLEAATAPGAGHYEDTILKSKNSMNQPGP
pIC50: −log10 of the molar value.

cpd.smiles: Cc1c(C#N)c(-c2c(F)ccc(F)c2F)nc2[nH]nc(-c3ccc(N4CCNCC4)cc3)c12
pIC50: 5.00 to 6.00
//
cpd.smiles: N#Cc1c(-c2ccccc2)nc2[nH]nc(-c3cccs3)c2c1-c1ccc(N2CCNCC2)cc1
pIC50: 5.00 to 6.00
//
cpd.smiles: N#Cc1c(-c2cnn[nH]2)nc2[nH]nc(-c3cccs3)c2c1-c1ccc(N2CCNCC2)cc1
pIC50: 5.00 to 6.00
//
cpd.smiles: N#Cc1c(-c2ccnc(O)c2)nc2[nH]nc(-c3cccs3)c2c1-c1ccc(N2CCNCC2)cc1
pIC50: 5.00 to 6.00

[Q] Query for ALK kinase (Homo sapiens, UniProt Q9UM73): what pIC50 does the record show for `N#Cc1c(-c2ccc(O)cc2F)nc2[nH]nc(-c3ccncc3)c2c1-c1ccc(N2CCNCC2)cc1` ?
[A] > 7.00

[Q] Query for ALK kinase (Homo sapiens, UniProt Q9UM73): what pIC50 does the record show for `CN1CCN(Cc2ccc(-c3c(C#N)c(-c4ccc(O)cc4)nc4[nH]ncc34)cc2)CC1` ?
[A] 5.00 to 6.00

[Q] Query for ALK kinase (Homo sapiens, UniProt Q9UM73): what pIC50 does the record show for `CNc1ccc(-c2nc3[nH]nc(C)c3c(-c3ccc(N4CCNCC4)cc3)c2C#N)c(F)c1` ?
[A] 5.00 to 6.00

[Q] Query for ALK kinase (Homo sapiens, UniProt Q9UM73): what pIC50 does the record show for `COC(=O)c1c(-c2ccc(O)cc2F)nc2[nH]nc(N)c2c1-c1ccc(N2CCNCC2)cc1` ?
[A] > 7.00

----------
# IC50 measurements, system: ALK kinase (Homo sapiens, UniProt Q9UM73)

molecule: Cc1n[nH]c2nc(-c3ccc(O)c(F)c3F)c(C#N)c(-c3ccc(N4CCNCC4)cc3)c12
target.or.test.system: ALK kinase (Homo sapiens, UniProt Q9UM73)
IC50: 100 to 1000 nM
--
molecule: CN(C)CCCN(C)c1ccc(-c2c(C#N)c(-c3ccc(O)cc3F)nc3[nH]nc(N)c23)cc1
target.or.test.system: ALK kinase (Homo sapiens, UniProt Q9UM73)
IC50: < 100 nM
--
molecule: N#Cc1c(-c2ccc(O)cc2F)nc2[nH]nc(N)c2c1-c1ccc(N2CCOCC2)o1
target.or.test.system: ALK kinase (Homo sapiens, UniProt Q9UM73)
IC50: < 100 nM
--
molecule: N#Cc1c(-c2ccc(O)cc2F)nc2[nH]ncc2c1-c1ccc(CN2CCOCC2)o1
target.or.test.system: ALK kinase (Homo sapiens, UniProt Q9UM73)
IC50: 100 to 1000 nM
--
molecule: Cc1n[nH]c2nc(-c3ccc(O)cc3F)c(C#N)c(-c3ccc(N4CC[C@@H](N)C4)nc3)c12
target.or.test.system: ALK kinase (Homo sapiens, UniProt Q9UM73)
IC50: < 100 nM

[Q] # input molecule: CNC1CCN(c2ccc(-c3n[nH]c4nc(-c5ccc(O)cc5F)c(C#N)c(C)c34)cn2)C1 (centres unmarked) ; wanted: its IC50
[A] 100 to 1000 nM

[Q] # input molecule: `N#Cc1c(-c2ccc(O)cc2F)nc2[nH]ncc2c1-c1ccc(Br)o1` ; wanted: its IC50
[A] < 100 nM

[Q] # input molecule: N#Cc1c(-c2ccc(O)cc2F)nc2[nH]nc(N)c2c1-c1ccc(N2CC3CNCC3C2)o1 (centres unmarked) ; wanted: its IC50
[A] 100 to 1000 nM

----------
- target.or.test.system: ALK kinase (Homo sapiens)
property: IC50

Example entries and their recorded answers appear below.
compound: CC(C)(C)C(=O)Oc1ccc(-c2nc3[nH]nc(-c4cccs4)c3c(-c3ccc(N4CCNCC4)cc3)c2C#N)c(F)c1 [Compound 296]
IC50: 100 to 1000 nM
--
compound: N#Cc1c(-c2ccc(O)c(Cl)c2)nc2[nH]nc(N)c2c1-c1ccc(N2CCNCC2)cc1 [Compound 192]
IC50: < 100 nM
--
compound: Cc1n[nH]c2nc(-c3ccc(O)cc3F)c(C#N)c(-c3ccc(N4CCNCC4)o3)c12 [Compound 172]
IC50: 100 to 1000 nM
--
compound: Cc1n[nH]c2nc(-c3ccc(O)cc3F)c(C#N)c(C3C[C@@H]3C(=O)N3CC[C@@H](N)C3)c12 (stereo partly shown) [Compound 147]
IC50: 1000 to 10000 nM
--
compound: CCOC(=O)c1c(-c2c(F)ccc(F)c2F)nc2[nH]nc(C)c2c1-c1ccc(N2CCNCC2)cc1 [Compound 252]
IC50: 100 to 1000 nM

[Q] Query for ALK kinase (Homo sapiens): what IC50 does the record show for N#Cc1c(-c2ccc(O)cc2F)nc2[nH]nc(N)c2c1-c1ccc(N2CCNCC2)c(F)c1 [Compound 193] ?
[A] < 100 nM

[Q] Query for ALK kinase (Homo sapiens): what IC50 does the record show for N#Cc1c(-c2ccc(O)cc2F)nc2[nH]nc(N)c2c1-c1ccco1 [Compound 93] ?
[A] > 10000 nM

----------
# pIC50 measurements, system: ALK kinase (Homo sapiens, UniProt Q9UM73)
pIC50: −log10 of the molar value.

Example entries and their recorded answers appear below.
cpd.smiles: Cc1c(C#N)c(-c2ccc(O)cc2F)nc2[nH]nc(N)c12
pIC50: 6.00 to 7.00
//
cpd.smiles: N#Cc1c(-c2ccoc2)nc2[nH]nc(-c3ccco3)c2c1-c1ccc(N2CCNCC2)cc1
pIC50: 5.00 to 6.00
//
cpd.smiles: COC(=O)c1c(-c2ccc(O)cc2F)nc2[nH]nc(C)c2c1-c1ccc(N2CCNCC2)cc1
pIC50: > 7.00
//
cpd.smiles: N#Cc1c(-c2ccc(O)cc2F)nc2[nH]ncc2c1-c1ccc(-c2nn[nH]n2)cc1
pIC50: 5.00 to 6.00
//
cpd.smiles: N#Cc1c(-c2ccc(O)cc2)nc2[nH]ncc2c1-c1cccs1
pIC50: 6.00 to 7.00

[Q] Query for ALK kinase (Homo sapiens, UniProt Q9UM73): what pIC50 does the record show for `N#Cc1c(-c2cscn2)nc2[nH]nc(-c3ccc(N4CCOCC4)cc3)c2c1-c1ccc(N2CCNCC2)cc1` ?
[A] 5.00 to 6.00

[Q] Query for ALK kinase (Homo sapiens, UniProt Q9UM73): what pIC50 does the record show for `COC(=O)c1c(-c2ccc(O)c(C)c2)nc2[nH]nc(C)c2c1-c1ccc(N2CCNCC2)cc1` ?
[A] > 7.00

[Q] Query for ALK kinase (Homo sapiens, UniProt Q9UM73): what pIC50 does the record show for `Cc1n[nH]c2nc(-c3ccc(O)cc3F)c(S(C)(=O)=O)c(-c3ccc(N4CCNCC4)cc3)c12` ?
[A] 6.00 to 7.00

[Q] Query for ALK kinase (Homo sapiens, UniProt Q9UM73): what pIC50 does the record show for `Cc1n[nH]c2nc(-c3ccc(O)cc3)c(C#N)c(-c3ccco3)c12` ?
[A] 6.00 to 7.00

[Q] Query for ALK kinase (Homo sapiens, UniProt Q9UM73): what pIC50 does the record show for `Cc1cc(-c2nc3[nH]nc(C)c3c(-c3ccc(N4CCNCC4)cc3)c2C#N)c(F)cc1O` ?
[A] > 7.00

----------
- target.or.test.system: ALK kinase (Homo sapiens, UniProt Q9UM73)
- protocol.description: Test to measure ALK kinase inhibition (GST-PLCγ1 substrate, anti-phosphotyrosine ELISA, luminescence)
- Type: biochemical
- assay.context: ALK kinase 180 ng/ml, 250 μM ATP, 30 minutes at 30° C.
- Protocol: Test to Measure ALK Kinase Inhibition A ViewPlate (Packard) is incubated with the GST-PLCγ1 substrate (purified recombinant form) at 0.1 mg/ml in phosphate buffer (PBS pH 7.4)(100 μl/well) for one hour under shaking. The plate is then saturated with a blocking solution containing 5% bovine serum albumin (BSA) (SIGMA) in PBS buffer pH 7.4. […] The signal is read in luminescent mode using a luminometer (MOLECULAR DEVICES SpectraMax M5e).
pIC50: −log10 of the molar value.
property: pIC50

Example entries and their recorded answers appear below.
molecule: CCN(CC)CCSc1ccc(-c2c(C#N)c(-c3ccc(O)cc3F)nc3[nH]nc(C)c23)o1
target.or.test.system: ALK kinase (Homo sapiens, UniProt Q9UM73)
measurement: > 7.00

molecule: N#Cc1c(-c2ccc(O)cc2F)nc2[nH]ncc2c1-c1ccc(N2CCNCC2)o1
target.or.test.system: ALK kinase (Homo sapiens, UniProt Q9UM73)
measurement: > 7.00

molecule: COC(=O)c1c(-c2ccc(OC(=O)C(C)(C)C)cc2F)nc2[nH]nc(C)c2c1-c1ccc(N2CCNCC2)cc1
target.or.test.system: ALK kinase (Homo sapiens, UniProt Q9UM73)
measurement: > 7.00

molecule: Cc1c(C#N)c(-c2ccc(O)cc2F)nc2[nH]nc(-c3ccc(N4CCNCC4)cc3)c12
target.or.test.system: ALK kinase (Homo sapiens, UniProt Q9UM73)
measurement: > 7.00

molecule: CNC1CCN(c2ccc(-c3c(C#N)c(-c4ccc(O)cc4F)nc4[nH]nc(C)c34)o2)C1 (stereo not drawn)
target.or.test.system: ALK kinase (Homo sapiens, UniProt Q9UM73)
measurement: > 7.00

# ---- query molecule ----
[Q] # input molecule: `N#Cc1c(-c2c(F)ccc(F)c2F)nc2[nH]nc(-c3ccco3)c2c1-c1ccc(N2CCNCC2)cc1` ; wanted: its pIC50
[A] 6.00 to 7.00

Data credit: patent US8889711B2
